Numbers sourced from ChEMBL document CHEMBL4818984.

# TESTED_TARGET: Tyrosinase (Agaricus bisporus)
# Sequence (O42713 whole entry): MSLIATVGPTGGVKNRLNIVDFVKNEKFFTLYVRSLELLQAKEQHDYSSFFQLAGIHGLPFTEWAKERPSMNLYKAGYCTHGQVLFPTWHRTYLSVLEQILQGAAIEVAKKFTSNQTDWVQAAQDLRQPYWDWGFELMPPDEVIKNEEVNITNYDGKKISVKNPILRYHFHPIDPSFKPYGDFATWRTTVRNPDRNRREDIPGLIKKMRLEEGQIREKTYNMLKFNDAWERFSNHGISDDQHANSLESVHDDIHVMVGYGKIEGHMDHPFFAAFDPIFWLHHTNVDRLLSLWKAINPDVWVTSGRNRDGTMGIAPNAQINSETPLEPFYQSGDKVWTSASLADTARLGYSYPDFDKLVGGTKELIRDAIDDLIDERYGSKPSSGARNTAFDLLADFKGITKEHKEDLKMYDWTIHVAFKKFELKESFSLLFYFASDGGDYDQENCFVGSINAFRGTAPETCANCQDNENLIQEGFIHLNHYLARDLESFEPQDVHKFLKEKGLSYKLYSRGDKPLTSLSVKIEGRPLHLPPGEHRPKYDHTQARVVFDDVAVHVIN
# EXPERIMENT: Inhibition of mushroom tyrosinase using L-tyrosine as substrate measured after 15 mins by microplate reader analysis
Please go through the items and note down their IC50.
Give bare numbers, in µM.

# COMPOUND_SMILES, EXPERIMENTAL_ENDPOINT, REPORTED_MEASUREMENT
rows = [
    ("COc1cc(C=O)ccc1O", "IC50", 4100),
]

Lab note: next compound to report on.
Data request, read-out IC50, for `C=CCc1ccc(O)c(OC)c1`
923

====

# TESTED_TARGET: Tyrosinase (Agaricus bisporus)
# EXPERIMENT: Inhibition of mushroom tyrosinase using L-tyrosine as substrate measured after 30 mins by microplate reader analysis
EXPERIMENTAL_ENDPOINT: IC50 (µM)
Answers are plain numbers, in µM.

Data request, read-out IC50, for `Oc1ccc2c(c1)OCO2`
6.7

====

Please go through the items and note down their Ratio IC50.
# TESTED_TARGET: Tyrosinase (Agaricus bisporus) (UniProt O42713)
# EXPERIMENT: Potency index, ratio of kojic acid IC50 to compound IC50 for inhibition of mushroom tyrosinase using L-DOPA as substrate by ELISA

# COMPOUND_SMILES, TESTED_TARGET, REPORTED_MEASUREMENT
measured = [
    ("O=c1cc(OCc2cn(Cc3cc(=O)c(O)co3)nn2)c2ccccc2o1", "Tyrosinase (Agaricus bisporus) (UniProt O42713)", "> 460"),
    ("COc1cc(C(C)=O)ccc1OCc1cn(Cc2cc(=O)c(O)co2)nn1", "Tyrosinase (Agaricus bisporus) (UniProt O42713)", 133),
    ("Cc1ccc(C(C)C)cc1OCc1cn(Cc2cc(=O)c(O)co2)nn1", "Tyrosinase (Agaricus bisporus) (UniProt O42713)", 133),
]

Lab note: next molecule to report on.
Data request, read-out Ratio IC50, for `O=c1cc(Cn2cc(COc3ccc4c(c3)OCO4)nn2)occ1O`
133

====

# TESTED_TARGET: Tyrosinase (Agaricus bisporus, UniProt O42713)
# EXPERIMENT: Inhibition of mushroom tyrosinase using L-tyrosine as substrate by HPLC analysis
EXPERIMENTAL_ENDPOINT: IC50

Data request, read-out IC50, for COc1ccc(C=O)cc1O [ISOVANILLIN]
> 500 µM
